Exercise: for every item that follows, state its recorded shrunken log2 fold change.
Test system: Escherichia coli TOP10
Assay: shrunken log2 fold change of peptide-encoding DNA abundance (4.5 h post-induction vs induction); higher = less antimicrobial activity (less host growth inhibition)
Details: time post-induction: 4.5 h; library: site-saturation at positions 5, 18, 19, 20
Give bare numbers.

Solved cases below.
RRIRQRPPRLPRPRPRPTHDPRP 0.911
RRIRGRPPRLPRPRPRPILKPRP 0.316

Hi team, please reply with shrunken log2 fold change for each item in this list.
1. RRIRTRPPRLPRPRPRPSGQPRP
2. RRIRYRPPRLPRPRPRPMNHPRP
3. RRIRSRPPRLPRPRPRPFLGPRP
4. RRIRQRPPRLPRPRPRPRCEPRP
5. RRIRIRPPRLPRPRPRPSTQPRP
6. RRIRNRPPRLPRPRPRPVIDPRP

[0.0245, -0.262, -0.186, -0.128, -0.0353, -0.123]

Hi team, please reply with shrunken log2 fold change for each item in this list.
1. RRIRNRPPRLPRPRPRPHEEPRP
2. RRIRERPPRLPRPRPRPHQIPRP
3. RRIRIRPPRLPRPRPRPSCPPRP
4. RRIRGRPPRLPRPRPRPSKAPRP
5. RRIRHRPPRLPRPRPRPVWLPRP

-0.0188
-0.372
-0.776
0.165
-0.0368

Hi team, please reply with shrunken log2 fold change for each item in this list.
1. RRIRVRPPRLPRPRPRPHRNPRP
2. RRIRYRPPRLPRPRPRPGNVPRP

1. -0.531
2. 0.0571

----------
System: Escherichia coli TOP10
Experiment: shrunken log2 fold change of peptide-encoding DNA abundance (4.5 h post-induction vs induction); higher = less antimicrobial activity (less host growth inhibition)
Details: time post-induction: 4.5 h; library: site-saturation at positions 5, 18, 19, 20
Exercise: for every item that follows, state its recorded shrunken log2 fold change.
Answers are plain numbers.

RRIRNRPPRLPRPRPRPSYSPRP -0.555
RRIRNRPPRLPRPRPRPSDYPRP 0.075
RRIRERPPRLPRPRPRPHSRPRP -0.0374
RRIRFRPPRLPRPRPRPTTAPRP 0.297
RRIRERPPRLPRPRPRPIMEPRP -0.465
RRIRPRPPRLPRPRPRPDRGPRP 0.0265

Hi team, please reply with shrunken log2 fold change for each item in this list.
1. RRIRIRPPRLPRPRPRPMIMPRP
2. RRIRARPPRLPRPRPRPWLAPRP
3. RRIRPRPPRLPRPRPRPGNMPRP
4. RRIRCRPPRLPRPRPRPVRLPRP
5. RRIRMRPPRLPRPRPRPNDWPRP
6. RRIRWRPPRLPRPRPRPHKLPRP
7. RRIRWRPPRLPRPRPRPKQAPRP
8. RRIRWRPPRLPRPRPRPNCSPRP

[-0.615, 0.162, -0.119, 0.499, 0.435, -0.135, 0.413, -0.162]

Hi team, please reply with shrunken log2 fold change for each item in this list.
1. RRIRMRPPRLPRPRPRPGYGPRP
2. RRIRARPPRLPRPRPRPQSAPRP
3. RRIRLRPPRLPRPRPRPDGYPRP
4. RRIRSRPPRLPRPRPRPVEDPRP
5. RRIRFRPPRLPRPRPRPHCYPRP

1: 0.148; 2: 0.153; 3: 0.0385; 4: -0.0519; 5: 0.149

----------
System: Escherichia coli TOP10
Assay: shrunken log2 fold change of peptide-encoding DNA abundance (4.5 h post-induction vs induction); higher = less antimicrobial activity (less host growth inhibition)
Settings: time post-induction: 4.5 h; library: site-saturation at positions 5, 18, 19, 20
Exercise: for every item that follows, state its recorded shrunken log2 fold change.
Give bare numbers.

Hi team, please reply with shrunken log2 fold change for each item in this list.
1. RRIRHRPPRLPRPRPRPNNCPRP
2. RRIRHRPPRLPRPRPRPHHTPRP
3. RRIRFRPPRLPRPRPRPIMKPRP
4. RRIRTRPPRLPRPRPRPPSTPRP

1: -0.0202; 2: -0.71; 3: -0.679; 4: 0.186

Hi team, please reply with shrunken log2 fold change for each item in this list.
1. RRIRFRPPRLPRPRPRPWTDPRP
2. RRIRVRPPRLPRPRPRPGMIPRP
3. RRIRTRPPRLPRPRPRPCLMPRP
4. RRIRWRPPRLPRPRPRPFYLPRP

1: -0.345; 2: -0.2; 3: -0.15; 4: -0.336

----------
Tested on: Escherichia coli TOP10
Assay: shrunken log2 fold change of peptide-encoding DNA abundance (4.5 h post-induction vs induction); higher = less antimicrobial activity (less host growth inhibition)
Conditions: time post-induction: 4.5 h; library: site-saturation at positions 5, 18, 19, 20
Label scheme for shrunken log2 fold change: lower than 0.1 is not fulfilled, 0.1 and above is fulfilled.

Some solved entries appear below for comparison.
RRIRRRPPRLPRPRPRPCFSPRP not fulfilled
RRIRMRPPRLPRPRPRPASSPRP not fulfilled
RRIRKRPPRLPRPRPRPDAQPRP fulfilled

Identify whether the reported shrunken log2 fold change of the following sequence is 0.1 or greater: RRIRERPPRLPRPRPRPLMTPRP
not fulfilled

Identify whether the reported shrunken log2 fold change of the following sequence is 0.1 or greater: RRIRDRPPRLPRPRPRPCCCPRP
fulfilled

Identify whether the reported shrunken log2 fold change of the following sequence is 0.1 or greater: RRIRGRPPRLPRPRPRPWYHPRP
not fulfilled

Identify whether the reported shrunken log2 fold change of the following sequence is 0.1 or greater: RRIRQRPPRLPRPRPRPEAYPRP
not fulfilled

Identify whether the reported shrunken log2 fold change of the following sequence is 0.1 or greater: RRIRDRPPRLPRPRPRPWRSPRP
fulfilled

Identify whether the reported shrunken log2 fold change of the following sequence is 0.1 or greater: RRIRFRPPRLPRPRPRPFYNPRP
not fulfilled

Identify whether the reported shrunken log2 fold change of the following sequence is 0.1 or greater: RRIRDRPPRLPRPRPRPVHTPRP
not fulfilled

Identify whether the reported shrunken log2 fold change of the following sequence is 0.1 or greater: RRIRLRPPRLPRPRPRPRGIPRP
not fulfilled

Identify whether the reported shrunken log2 fold change of the following sequence is 0.1 or greater: RRIRVRPPRLPRPRPRPHYRPRP
not fulfilled

Identify whether the reported shrunken log2 fold change of the following sequence is 0.1 or greater: RRIRTRPPRLPRPRPRPLNPPRP
not fulfilled

Identify whether the reported shrunken log2 fold change of the following sequence is 0.1 or greater: RRIRVRPPRLPRPRPRPIGAPRP
fulfilled

Identify whether the reported shrunken log2 fold change of the following sequence is 0.1 or greater: RRIRERPPRLPRPRPRPTGPPRP
fulfilled

Identify whether the reported shrunken log2 fold change of the following sequence is 0.1 or greater: RRIRARPPRLPRPRPRPELHPRP
fulfilled

Identify whether the reported shrunken log2 fold change of the following sequence is 0.1 or greater: RRIRTRPPRLPRPRPRPYHHPRP
not fulfilled

Identify whether the reported shrunken log2 fold change of the following sequence is 0.1 or greater: RRIRTRPPRLPRPRPRPQPTPRP
fulfilled

Identify whether the reported shrunken log2 fold change of the following sequence is 0.1 or greater: RRIRDRPPRLPRPRPRPRVEPRP
fulfilled

----------
Exercise: for every item that follows, state its recorded shrunken log2 fold change.
System: Escherichia coli TOP10
Assay: shrunken log2 fold change of peptide-encoding DNA abundance (4.5 h post-induction vs induction); higher = less antimicrobial activity (less host growth inhibition)
Settings: time post-induction: 4.5 h; library: site-saturation at positions 5, 18, 19, 20
Answers are plain numbers.

Solved cases below.
RRIRSRPPRLPRPRPRPRRRPRP 0.312
RRIRMRPPRLPRPRPRPEMCPRP 3.01
RRIRPRPPRLPRPRPRPMNFPRP -0.165

Hi team, please reply with shrunken log2 fold change for each item in this list.
1. RRIRHRPPRLPRPRPRPFPLPRP
2. RRIRPRPPRLPRPRPRPWCEPRP
3. RRIRCRPPRLPRPRPRPQREPRP
4. RRIRWRPPRLPRPRPRPRLDPRP

1: -0.0682; 2: -0.0374; 3: -0.0986; 4: 0.459

----------
Exercise: for every item that follows, state its recorded shrunken log2 fold change.
Tested on: Escherichia coli TOP10;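 also: peptides expressed intracellularly from a pBAD plasmid library in pooled LB shake-flask culture, induced with 0.3% L-arabinose, DNA abundance read by NGS, three biological replicates, DESeq2 with apeglm shrinkage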
Assay: shrunken log2 fold change of peptide-encoding DNA abundance (4.5 h post-induction vs induction); higher = less antimicrobial activity (less host growth inhibition)
Conditions: time post-induction: 4.5 h; library: site-saturation at positions 5, 18, 19, 20

Solved cases below.
RRIRHRPPRLPRPRPRPVCSPRP -0.168
RRIRSRPPRLPRPRPRPVVAPRP 0.608
RRIRRRPPRLPRPRPRPQLYPRP 0.101
RRIRYRPPRLPRPRPRPTGHPRP 0.0155
RRIRDRPPRLPRPRPRPVAPPRP 0.445
RRIRERPPRLPRPRPRPLEYPRP -0.494

Hi team, please reply with shrunken log2 fold change for each item in this list.
1. RRIRPRPPRLPRPRPRPFGDPRP
2. RRIRVRPPRLPRPRPRPYDYPRP

-0.0184
-0.00141
